System: Streptococcus pneumoniae
experiment_description: Antibacterial activity against constitutive MLS resistant Streptococcus pneumoniae by agar microdilution method
Format: functional
The following compounds are listed with their measured MIC values.

chem_smiles	MIC
CC[C@H]1OC(=O)[C@H](C)[C@@H](O[C@H]2C[C@@](C)(OC)[C@@H](OCCNCCOCCOCCNc3cc4c(=O)c(C(=O)O)cn(C5CC5)c4cc3Cl)[C@H](C)O2)[C@H](C)[C@@H](O[C@@H]2O[C@H](C)C[C@H](N(C)C)[C@H]2O)[C@](C)(O)C[C@@H](C)CN(C)[C@H](C)[C@@H](O)[C@]1(C)O	64 µg/mL
CC[C@H]1OC(=O)[C@H](C)[C@@H](O[C@H]2C[C@@](C)(OC)[C@@H](OCCNCCOCCNc3cc4c(cc3F)c(=O)c(C(=O)O)cn4C3CC3)[C@H](C)O2)[C@H](C)[C@@H](O[C@@H]2O[C@H](C)C[C@H](N(C)C)[C@H]2O)[C@](C)(O)C[C@@H](C)CN(C)[C@H](C)[C@H]2OC(=O)O[C@@]21C	16 µg/mL
CC[C@H]1OC(=O)[C@H](C)[C@@H](O[C@H]2C[C@@](C)(OC)[C@@H](OCCCC(=O)NCCOCCOCCNc3cc4c(=O)c(C(=O)O)cn(C5CC5)c4cc3Cl)[C@H](C)O2)[C@H](C)[C@@H](O[C@@H]2O[C@H](C)C[C@H](N(C)C)[C@H]2O)[C@](C)(O)C[C@@H](C)CN(C)[C@H](C)[C@@H](O)[C@]1(C)O	64 µg/mL
